The entries below come with measured pIC50 values attached.
- System under test: SPHK-1 (Homo sapiens, UniProt Q9NYA1)
- Sequence (Q9NYA1 whole entry): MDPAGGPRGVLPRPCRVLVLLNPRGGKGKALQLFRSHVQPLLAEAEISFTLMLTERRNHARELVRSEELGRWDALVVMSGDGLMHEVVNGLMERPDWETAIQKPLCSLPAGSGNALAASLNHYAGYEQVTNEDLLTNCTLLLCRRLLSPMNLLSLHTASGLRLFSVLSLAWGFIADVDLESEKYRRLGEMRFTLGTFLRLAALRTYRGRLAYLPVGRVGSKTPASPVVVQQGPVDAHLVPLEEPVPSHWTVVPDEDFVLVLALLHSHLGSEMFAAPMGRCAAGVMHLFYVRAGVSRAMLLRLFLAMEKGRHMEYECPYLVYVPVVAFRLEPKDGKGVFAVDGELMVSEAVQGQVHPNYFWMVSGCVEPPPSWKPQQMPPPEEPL
- Assay text: Reporter Assay: sphingosine kinase conversion of fluorescein-labeled sphingosine, read on Lab Chip 3000
- Test settings: 2 μM Fl-sphingosine, 25 μM ATP, 300 ng/ml SK1, 1 hour at room temperature; from percent conversion of substrate to product; read-out: SPHK-1 IC50 (n =)
Where a name gives a salt, the structure may show the parent alone.
Hey, just a heads up that pIC50 is the negative log base 10 of the concentration in molar.

Some solved entries appear below for comparison.
O=C(Nc1ccc(CCCOc2ccc(F)cc2)cc1)[C@H]1NCC[C@@H]1O :: 5.82
O=C(Nc1ccc(CCCCCOc2ccc(F)cc2)cc1)[C@H]1NCC[C@@H]1O :: 6.72
CCCCCCCCc1ccc(-c2ccc(NC(=O)[C@@H](N)[C@@H](C)O)cc2)cc1 :: 5.96
CCCCCCCCc1ccc(NC(=O)[C@H]2NCC[C@@H]2O)cn1 :: 5.52
O=C(NCc1ccc(-n2cc(CCc3ccccc3)nn2)cc1)[C@H]1NCC[C@@H]1O :: 5.80

Query block: Quick one: pIC50 for CCCCCCCCc1ccc(CNC(=O)[C@H]2NCC[C@@H]2O)cc1 ?
Result block: 5.68

Query block: Entry under review: C[C@H](NC(=O)[C@H]1NCC[C@@H]1O)c1ccc(-c2noc(CCC3CCC3)n2)cc1 [Example 100, hemi tartrate salt] . Reported pIC50?
Result block: 7.23

Query block: Which pIC50 is listed for O=C(NCc1cc(F)c2oc(C3CCCCC3)cc2c1)[C@H]1NCC[C@@H]1O ?
Result block: 6.10

====

Readings of IC50 for the listed compounds
- System under test: SPHK-1 (Homo sapiens, UniProt Q9NYA1)
- Assay text: Reporter Assay: sphingosine kinase conversion of fluorescein-labeled sphingosine, read on Lab Chip 3000
- Test settings: 2 μM Fl-sphingosine, 25 μM ATP, 300 ng/ml SK1, 1 hour at room temperature; from percent conversion of substrate to product; read-out: SPHK-1 IC50 (n =)
# value in nM; strip the unit string

CCCCCCCCc1cc2c(F)c(CNC(=O)[C@H]3NCC[C@@H]3O)ccc2o1 :: 510
O=C(NCc1ccc2oc(C3CCCCC3)cc2c1)[C@H]1NCC[C@@H]1O :: 1200
CC(C)Cc1ccc(-c2nc(-c3ccc(CNC(=O)[C@H]4NCC[C@@H]4O)cc3)no2)cc1 :: 4400

Query compound follows.
Query block: So what's the measured IC50 for this one? CCCCCCCOc1ccc(NC(=O)[C@@H](N)[C@@H](C)O)cc1
Result block: 1500

====

- System under test: SPHK-1 (Homo sapiens)
- Assay text: Reporter Assay: sphingosine kinase conversion of fluorescein-labeled sphingosine, read on Lab Chip 3000
- Test settings: 2 μM Fl-sphingosine, 25 μM ATP, 300 ng/ml SK1, 1 hour at room temperature; from percent conversion of substrate to product; read-out: SPHK-1 IC50 (n =)
- Description: Sphingosine kinase is a 49 kDa enzyme that catalyzes the formation of sphingosine-1-phosphate (S-1-P) from sphingosine. Fluorescein labeled sphingosine was obtained from Echelon Biosciences (S-100F). […] After 1 hour, 10 μl of termination buffer was added to terminate, the reaction, and the plate was read on a Lab Chip 3000. The plate was read for one cycle. […] Results were calculated based on percent conversion of substrate to product using the following formula: […]
The following molecules are listed with their measured pIC50 values.
Schema: pIC50 number; meaning minus log10 of the concentration expressed in molar units.

CCCCCCCc1noc(-c2ccc(CNC(=O)[C@@H]3C[C@@H](O)CCN3)cc2)n1 :: 5.57

Next item in the queue.
Query block: Hi! What's the reported pIC50 for CCCCCCCCc1cc2cc(CNC(=O)[C@H]3NCC[C@@H]3O)ccc2o1 on SPHK-1 (Homo sapiens)?
Result block: 7.51

====

- System under test: SPHK-1 (Homo sapiens, UniProt Q9NYA1)
- Assay text: Reporter Assay: sphingosine kinase conversion of fluorescein-labeled sphingosine, read on Lab Chip 3000
- Test settings: 2 μM Fl-sphingosine, 25 μM ATP, 300 ng/ml SK1, 1 hour at room temperature; from percent conversion of substrate to product; read-out: SPHK-1 IC50 (n =)
Reported property: pIC50
Answer as the number alone; pIC50 is minus log10 of concentration in mol/L.

Solved cases (3 shown):
O=C(NCc1ccc(-c2noc(C3CCC(F)(F)CC3)n2)cc1)[C@H]1NCC[C@@H]1O :: 5.19
CCCCCCCCc1cc2cc(CNC(=O)[C@H]3NCC[C@@H]3O)cc(F)c2o1 :: 6.34
O=C(NCc1ccc(-n2cc(CCC3CCCCC3)nn2)cc1)[C@H]1NCC[C@@H]1O :: 6.54

Query block: Recorded pIC50 of CCCCCCSCCCCc1ccc(NC(=O)[C@H]2NCC[C@@H]2O)cc1 , please.
Result block: 8.70

Query block: What value of pIC50 has been reported for the following molecule? CCCCC(=O)CCCCCc1ccc(NC(=O)[C@H]2NCC[C@@H]2O)cc1
Result block: 7.07

Query block: Given the entry CCCCCCCCc1cc2cc(CNC(=O)[C@H]3NCC[C@@H]3O)ccc2n1C , report its measured pIC50.
Result block: 6.52

====

// log10 IC50 lookup, one value per entry
- System under test: SPHK-1 (Homo sapiens)
- Construct: purchased BPS Bioscience
- Assay text: Reporter Assay: sphingosine kinase conversion of fluorescein-labeled sphingosine, read on Lab Chip 3000
- Type: biochemical
- Test settings: 2 μM Fl-sphingosine, 25 μM ATP, 300 ng/ml SK1, 1 hour at room temperature; from percent conversion of substrate to product; read-out: SPHK-1 IC50 (n =)
Counter-ions that a name gives are not always drawn.
Heads up: the numbers are on a log10 scale; they represent IC50 in nM.

Completed entries (count: 5):
CCCCCCc1cc2cc(CNC(=O)[C@H]3NCC[C@@H]3O)ccc2o1 [Example 114] :: 2.72
CCCCCCCCc1cnc(-c2ccc(CNC(=O)[C@H]3NCC[C@@H]3O)cc2)s1 [Example 106] :: 1.85
CCCCCCCCc1ccc(O)c(NC(=O)[C@H]2NCC[C@@H]2O)c1 [Example 58, hydrochloride] :: 3.56
CCCCCCCCCCc1ccc(NC(=O)[C@@H](N)[C@@H](C)O)cc1 [Example 6] :: 1.66
CCCCCCCc1ccc(-c2ccc(NC(=O)[C@H]3NCC[C@@H]3O)cc2)nc1 [Example 104] :: 3.20

Query block: # get_value(readout='log10 IC50', item= CCCCCCCCc1ccc(NC(=O)[C@@H](N)CCCCO)cc1 [Example 52] )
Result block: 3.60

Query block: Look up log10 IC50: CCCCCCCCc1nc(-c2ccc(CNC(=O)[C@H]3NCC[C@@H]3O)cc2)cs1 [Example 103]
Result block: 1.69

Query block: // returns reported log10 IC50 for input CCCCCCCc1cc2cc(CNC(=O)[C@H]3NCC[C@@H]3O)ccc2o1 [Example 113]
Result block: 2.20

Query block: Returns the measured log10 IC50 for the input compound. Input: CCCCCCCCCCCc1ccc(NC(=O)[C@@H](N)[C@@H](C)O)cc1 [Example 7]
Result block: 2.04

====

- System under test: SPHK-1 (Homo sapiens)
- Assay text: Reporter Assay: sphingosine kinase conversion of fluorescein-labeled sphingosine, read on Lab Chip 3000
- Test settings: 2 μM Fl-sphingosine, 25 μM ATP, 300 ng/ml SK1, 1 hour at room temperature; from percent conversion of substrate to product; read-out: SPHK-1 IC50 (n =)
- Experimental: Sphingosine kinase is a 49 kDa enzyme that catalyzes the formation of sphingosine-1-phosphate (S-1-P) from sphingosine. Fluorescein labeled sphingosine was obtained from Echelon Biosciences (S-100F). […] After 1 hour, 10 μl of termination buffer was added to terminate, the reaction, and the plate was read on a Lab Chip 3000. The plate was read for one cycle. […] Results were calculated based on percent conversion of substrate to product using the following formula: […]
Reported property: IC50 (nM)
The figure you give is taken to be in nM; do not add the unit.

CCCCCCCCc1ccc(NC(=O)[C@H](N)[C@H](C)O)cc1 :: 2100
CCCCCCCCc1cccc(NC(=O)[C@@H](N)[C@@H](C)O)c1 :: 2900
CCCCCCCCc1ccc(-c2ccc(NC[C@@H](N)[C@@H](C)O)cc2)cc1 :: 2300

Query block: Record request: IC50 value, item CCCCCCCCOCc1ccc(NC(=O)[C@H]2NCC[C@@H]2O)cc1
Result block: 4.9

Query block: Give the measured IC50 of CCCCCCCc1nc(-c2ccc3c(c2)CC[C@H]3NC(=O)[C@H]2NCC[C@@H]2O)no1 .
Result block: 6900

Query block: Param item = CCCCCCCCc1ccc(NC(=O)[C@H](CO)NC)cc1 ; retrieve measured IC50.
Result block: 2800

Query block: Would you kindly share the measured IC50 for CCCc1ccc(-c2nc(-c3ccc(CNC(=O)[C@H]4NCC[C@@H]4O)cc3)no2)cc1 ?
Result block: 1800
